# Tested on: Danio rerio larvae (5 dpf)
# PROTOCOL_DESCRIPTION: difference in startle response vs DMSO (percentage points); higher = stronger startle than DMSO
# CONDITION: 10 µM; exposure time 6 h
Where a name gives a salt, the structure may show the parent alone.
Lab note: anything with difference in startle response at or over -1 counts as satisfied; the rest go in not satisfied.

| COMPOUND | MEASURED_ON | DISCRETE_LABEL |
| --- | --- | --- |
| O=C(O)c1cc(/N=N/c2ccc(S(=O)(=O)Nc3ccccn3)cc2)ccc1O | Danio rerio larvae (5 dpf) | satisfied |
| CN1CCN2c3ncccc3Cc3ccccc3C2C1 (stereo unspecified) | Danio rerio larvae (5 dpf) | satisfied |
| COc1ccc(-n2nc(C(N)=O)c3c2C(=O)N(c2ccc(N4CCCCC4=O)cc2)CC3)cc1 | Danio rerio larvae (5 dpf) | not satisfied |
| CCCCCCCCCCCCCCCCCCCCCCO | Danio rerio larvae (5 dpf) | satisfied |
| Nc1nc2c(c(=O)[nH]1)N(C=O)C(CNc1ccc(C(=O)NC(CCC(=O)O)C(=O)O)cc1)CN2 (racemic) [DL-Folinic Acid (calcium salt)] | Danio rerio larvae (5 dpf) | satisfied |
| CCOc1nc2cccc(C(=O)OCc3oc(=O)oc3C)c2n1Cc1ccc(-c2ccccc2-c2noc(=O)[nH]2)cc1 | Danio rerio larvae (5 dpf) | not satisfied |
| CCOC(=O)[C@H](CCc1ccccc1)N[C@@H](C)C(=O)N1[C@H](C(=O)O)C[C@H]2CCCC[C@@H]21 | Danio rerio larvae (5 dpf) | satisfied |
| Cc1c(C(=O)Nc2ccc(N3C[C@@H](C)O[C@@H](C)C3)nc2)cccc1-c1ccc(OC(F)(F)F)cc1 [LDE225 (phosphate)] | Danio rerio larvae (5 dpf) | not satisfied |
| Clc1ccc(C(c2ccccc2Cl)C(Cl)Cl)cc1 (stereo unspecified) | Danio rerio larvae (5 dpf) | not satisfied |
| CC1(C)C[C@@H]1C(=O)N/C(=C\CCCCSC[C@H](N)C(=O)O)C(=O)O | Danio rerio larvae (5 dpf) | satisfied |
| COC(=O)C1=C(C)NC(C)=C(C(=O)OCCN(C)Cc2ccccc2)C1c1cccc([N+](=O)[O-])c1 (stereo unspecified) [Nicardipine (hydrochloride)] | Danio rerio larvae (5 dpf) | not satisfied |
| C=C1/C(=C\C=C2/CCC[C@]3(C)[C@@H]([C@H](C)/C=C/[C@H](C)C(C)C)CC[C@@H]23)C[C@@H](O)C[C@@H]1O [1-hydroxy Vitamin D2] | Danio rerio larvae (5 dpf) | not satisfied |
| CN1[C@@H]2CC[C@H]1C[C@@H](OC(c1ccccc1)c1ccccc1)C2 [Benztropine (mesylate)] | Danio rerio larvae (5 dpf) | not satisfied |
| C#Cc1cccc(Nc2ncnc3cc(OCCOC)c(OCCOC)cc23)c1 | Danio rerio larvae (5 dpf) | not satisfied |
| Cc1cn(-c2cc(NC(=O)c3ccc(C)c(Nc4nccc(-c5cccnc5)n4)c3)cc(C(F)(F)F)c2)cn1 | Danio rerio larvae (5 dpf) | not satisfied |
| C=C1/C(=C\C=C2/CCC[C@]3(C)[C@@H]([C@H](C)CCCC(C)(C)O)CC[C@@H]23)C[C@@H](O)C[C@@H]1O | Danio rerio larvae (5 dpf) | not satisfied |
| C[C@@H](CN1CC(=O)NC(=O)C1)N1CC(=O)NC(=O)C1 | Danio rerio larvae (5 dpf) | satisfied |
| CCc1nn(CCCN2CCN(c3cccc(Cl)c3)CC2)c(=O)n1CCOc1ccccc1 [Nefazodone (hydrochloride)] | Danio rerio larvae (5 dpf) | not satisfied |
| COc1ccccc1OCC(O)CO (stereo unspecified) | Danio rerio larvae (5 dpf) | not satisfied |
| CNC1(C)C2CCC(C2)C1(C)C (stereo unspecified) [Mecamylamine (hydrochloride)] | Danio rerio larvae (5 dpf) | not satisfied |
| Cc1ccc(=O)n(-c2ccccc2)c1 | Danio rerio larvae (5 dpf) | satisfied |
| CC(=O)N(CC(O)CO)c1c(I)c(C(=O)NCC(O)CO)c(I)c(C(=O)NCC(O)CO)c1I (stereo unspecified) [Iohexol] | Danio rerio larvae (5 dpf) | satisfied |
| COc1c(N2CCNC(C)C2)c(F)cc2c(=O)c(C(=O)O)cn(C3CC3)c12 (stereo unspecified) | Danio rerio larvae (5 dpf) | not satisfied |
| Cc1cn([C@H]2C=C[C@@H](CO)O2)c(=O)[nH]c1=O | Danio rerio larvae (5 dpf) | not satisfied |
| CC(C)(C)c1cc(C(C)(C)C)c(NC(=O)c2c[nH]c3ccccc3c2=O)cc1O | Danio rerio larvae (5 dpf) | not satisfied |
| CC1=C(/C=C/C(C)=C\C=C\C(C)=C\C(=O)O)C(C)(C)CCC1 [9-cis-Retinoic Acid] | Danio rerio larvae (5 dpf) | not satisfied |
| CO[C@H]1/C=C/O[C@@]2(C)Oc3c(C)c(O)c4c(O)c(c5c(nc6cc(C)ccn65)c4c3C2=O)NC(=O)/C(C)=C\C=C\[C@H](C)[C@H](O)[C@@H](C)[C@@H](O)[C@@H](C)[C@H](OC(C)=O)[C@@H]1C | Danio rerio larvae (5 dpf) | not satisfied |
| O=C1CCc2cc(OCCCCc3nnnn3C3CCCCC3)ccc2N1 | Danio rerio larvae (5 dpf) | satisfied |
| Cc1cc(NS(=O)(=O)c2ccc(N)cc2)no1 | Danio rerio larvae (5 dpf) | satisfied |
| CC1(C)S[C@@H]2[C@H](NC(=O)COc3ccccc3)C(=O)N2[C@H]1C(=O)O [Penicillin V (potassium salt)] | Danio rerio larvae (5 dpf) | satisfied |
| COc1nc(N)nc2c1ncn2[C@@H]1O[C@H](CO)[C@@H](O)[C@@H]1O | Danio rerio larvae (5 dpf) | satisfied |
